# credit: PubChem BioAssay (NCI)

Tested on: TK-10 renal
Experiment: NCI tumour cell line growth inhibition, 48 h
Catalogue of TGI values

Study these solved cases before continuing.
> print(dat)
                                   molecule  observed
1                       CCc1n[nH]c(=O)[nH]1  > 100 µM
2            Oc1ccc(O)c(-n2cccn2)c1-n1cccn1  > 100 µM
3  CC1/C(=N/O)CC(c2ccccc2)N(N=O)C1c1ccccc1 (centres undefined)  > 100 µM
4               Nc1c(C(=O)O)nnc2cc(Cl)ccc12  > 100 µM
5  O=C(O)C1CSC2(CCCN(Cc3ccccc3)C2)N1 (centres undefined)  > 100 µM

Q: Can you share its TGI? I mean this molecule: Cc1oc2nc(N(C)C)n3cnnc3c2c1C
A: > 100 µM

Q: Can you share its TGI? I mean this molecule: CCOC(=O)CN1C(=O)C(=O)N(c2ccc(OC)c3ccccc23)C1=O
A: > 100 µM
